All figures here come from PubChem BioAssay (NCI).

- Tested on: ACHN renal
- method: NCI tumour cell line growth inhibition, 48 h

{"compound": "COc1cc2c(c(OC)c1OC)-c1ccc(SC)c(=O)cc1C(CC(=O)Oc1ccc(F)cc1)C2 (stereo not given)", "GI50": "0.587 µM"}
{"compound": "N#C/C(=C\\c1ccc2c(c1)OCO2)n1nnc2ccccc21", "GI50": "0.784 µM"}
{"compound": "Cn1ccnc1C(=O)/C=C/c1ccc(C(=O)Nc2ccc(F)cc2)cc1", "GI50": "1.01 µM"}
{"compound": "O=C(c1ccccc1)N(C(=S)NCCc1ccc(Cl)cc1)c1ccc(Cl)cc1", "GI50": "5.68 µM"}
{"compound": "Fc1cc(-c2csc3n[nH]c(=S)n23)c(Cl)cc1Cl", "GI50": "23.7 µM"}

* * *

- System: 786-0 renal
- method: NCI tumour cell line growth inhibition, 48 h

{"compound": "CC(C)c1ccc(COCc2cc(CN3CCCC3)c(O)c3ncccc23)cc1", "TGI": "3.83 µM"}
{"compound": "O=C(NC(N1CCN(c2cc3c(cc2F)c(=O)c(C(=O)O)cn3C2CC2)CC1)(C(F)(F)F)C(F)(F)F)c1ccccc1", "TGI": "> 100 µM"}
{"compound": "c1ccc(-c2ccc(-c3ccc(C4=NCCN4)cc3)o2)cc1", "TGI": "3.1 µM"}
{"compound": "CCOC(=O)N1CCC2C(=C(C)C(C)C3=C2C(=O)c2ccccc2C3=O)C1 (stereo unspecified)", "TGI": "> 10 µM"}
{"compound": "COC(=O)C1=C(C(=O)OC)C2(C)OC1C(=O)C21CC1 (stereo unspecified)", "TGI": "> 100 µM"}
{"compound": "CC(C)(O)C1CC[C@]2(C)CC[C@]3(C)[C@H](CC[C@@H]4[C@@]5(C)CC[C@H](O)C(C)(C)[C@@H]5CC[C@]43C)[C@@H]12 (stereo partly specified)", "TGI": "78.1 µM"}
{"compound": "NCCN1C(=O)c2cc(Cl)c(Cl)cc2C1(O)c1ccc(Cl)cc1 (stereo unspecified)", "TGI": "2.96 µM"}
{"compound": "Cn1c(CCC2(C)Cc3ccccc3C(=O)O2)cc2ccccc2c1=O (stereo unspecified)", "TGI": "> 100 µM"}
{"compound": "CCOC1CCC2C(CCC(/C=C/c3ccc(O)c4ncccc34)N2C)C1 (stereo unspecified)", "TGI": "> 100 µM"}
{"compound": "CCOC(=O)C(=CNC(=S)c1ccncc1)C(=O)OCC", "TGI": "> 100 µM"}
{"compound": "Cc1ncc(CSc2ccccc2N)c(CO)c1O", "TGI": "> 100 µM"}
{"compound": "CC1(C)CCCC2(C)[C@@H]1CC[C@@]13CC(=O)[C@@](C)(CC[C@@H]21)C3 (stereo partly specified)", "TGI": "> 100 µM"}
{"compound": "CC(=O)Oc1c(C)cc2c(c1C)C(C)CN2C(C)=O (stereo unspecified)", "TGI": "> 100 µM"}
{"compound": "CCOC(=O)c1sc2c(sc(=O)n2-c2ccccc2)c1O", "TGI": "> 100 µM"}
{"compound": "CC(C)Cn1cnc2c(Sc3c([N+](=O)[O-])ncn3C)nc(N)nc21", "TGI": "> 100 µM"}
{"compound": "COc1ccc(NC(=O)CC(=O)n2nc(-c3ccccc3)c(N=Nc3ccccc3C(=O)O)c2-c2ccccc2)cc1", "TGI": "70.8 µM"}
{"compound": "COc1ccc(NC(=O)CSc2nnc(-c3ccc(N=Cc4ccc(Cl)cc4)cc3)o2)cc1", "TGI": "> 100 µM"}
{"compound": "Cc1cccc(C)c1NC(=O)/C=C/c1ccccc1", "TGI": "> 100 µM"}
{"compound": "Cc1cc(Cc2c(C)c(C)c(Cc3cc(C)cc(C(C)(C)C)c3O)c(C)c2C)c(O)c(C(C)(C)C)c1", "TGI": "> 100 µM"}
{"compound": "O=C1c2ccccc2C(=O)c2[nH]c(Cc3ccccc3F)nc21", "TGI": "> 100 µM"}
{"compound": "CCc1nc(N)c2nc(-c3ccc(C#N)cc3)oc2n1", "TGI": "> 100 µM"}

* * *

- Test system: HT29 colon
- method: NCI tumour cell line growth inhibition, 48 h
testReadout: TGI (µM)

{"compound": "O=C1/C(=C\\c2cccc(Oc3ccccc3)c2)S(=O)(=O)C(c2ccccc2)N1c1cc(Cl)ccc1Cl (configuration not stated)", "targetOrSystem": "HT29 colon", "relationOperator": ">", "measured": 100}
{"compound": "COc1ccc2cnc(N)c(C#Cc3cc(C(=O)Nc4ccc(CN5CCN(C)CC5)c(C(F)(F)F)c4)cnc3C)c2c1", "targetOrSystem": "HT29 colon", "relationOperator": "=", "measured": 6.01}
{"compound": "COC1CC(OC2C(C)OC(OC3C(C)OC(OC4CCC5(C)C(=CCC6(O)C5CC(OC(=O)c5ccc(O)cc5)C5(C)C(O)(C(C)=O)CCC65O)C4)CC3OC)CC2OC)OC(C)C1O (configuration not stated) (tested in a mixture with another compound)", "targetOrSystem": "HT29 colon", "relationOperator": ">", "measured": 100}
{"compound": "Nc1ncnc2c1ncn2C1OC(CSC(F)F)C(O)C1O (configuration not stated)", "targetOrSystem": "HT29 colon", "relationOperator": ">", "measured": 100}
{"compound": "COc1ccccc1C=NC12CC3CC(CC(C3)C1)C2", "targetOrSystem": "HT29 colon", "relationOperator": ">", "measured": 100}
{"compound": "C=C[C@]1(C)CC(O)C2C(=C)C(=O)OC2[C@H]1C(=C)C=O (some centres not stated)", "targetOrSystem": "HT29 colon", "relationOperator": "=", "measured": 7.05}
{"compound": "CC(=O)/C(N=Nc1ccc(-n2c(C)nc3ccccc3c2=O)cc1)=C(/C)O", "targetOrSystem": "HT29 colon", "relationOperator": ">", "measured": 100}
{"compound": "COC(=O)C1CC2c3c(c4ccccc4n3C)CC(C1=O)N2C (configuration not stated)", "targetOrSystem": "HT29 colon", "relationOperator": ">", "measured": 100}
{"compound": "CCc1c(-c2ccccc2)[nH]c2ccccc2c1=O", "targetOrSystem": "HT29 colon", "relationOperator": ">", "measured": 100}
{"compound": "COc1ccc(/C=C/c2cc(OC)cc(OC)c2)cc1", "targetOrSystem": "HT29 colon", "relationOperator": ">", "measured": 36.6}
{"compound": "COC(=O)c1ccc2cc(O)c(O)cc2c1", "targetOrSystem": "HT29 colon", "relationOperator": ">", "measured": 100}
{"compound": "CN(C)C(=S)NC(=S)Nc1ccc2ccccc2c1", "targetOrSystem": "HT29 colon", "relationOperator": "=", "measured": 25.3}
{"compound": "CN(C)C=Nc1ccc2c3c(cccc13)-c1ccccc1-2", "targetOrSystem": "HT29 colon", "relationOperator": "=", "measured": 21.6}
{"compound": "COC(=O)CCC1(C)C2CCC1/C(=N/O)C2 (configuration not stated)", "targetOrSystem": "HT29 colon", "relationOperator": ">", "measured": 100}
{"compound": "CCOc1c(OC)cc(C2c3cc4c(c(OCC)c3CC3COC(=O)C32)OCO4)cc1OC (configuration not stated)", "targetOrSystem": "HT29 colon", "relationOperator": "=", "measured": 10.4}
{"compound": "C/C=C/C1(C)/C(=N\\O)C(C)(CCC)C(=O)N1O (configuration not stated)", "targetOrSystem": "HT29 colon", "relationOperator": ">", "measured": 100}
{"compound": "N/C(=N\\Nc1ccc(C(=O)O)cc1)c1cnccn1", "targetOrSystem": "HT29 colon", "relationOperator": ">", "measured": 100}
{"compound": "NCCN1C(=O)c2cc(Cl)c(Cl)cc2C1(O)c1ccc(Cl)cc1 (configuration not stated)", "targetOrSystem": "HT29 colon", "relationOperator": "=", "measured": 3.81}
{"compound": "COc1ccc(N=NC(=O)NC(CC(C)C)C(=O)NC(CC(C)C)C(=O)O)cc1 (configuration not stated)", "targetOrSystem": "HT29 colon", "relationOperator": ">", "measured": 100}
{"compound": "O=S(=O)(Nc1cccc(Cl)c1)c1ccc(-c2cnc(C3CC3)o2)cc1", "targetOrSystem": "HT29 colon", "relationOperator": "=", "measured": 12.2}
{"compound": "Oc1ccc(-c2nc3ccc(F)cc3s2)cc1", "targetOrSystem": "HT29 colon", "relationOperator": "=", "measured": 31.3}
{"compound": "COc1ccc(-c2nc(S(=O)(=O)c3ccccc3)c(S(=O)CC(=O)N3CCC(C)CC3)o2)cc1 (configuration not stated)", "targetOrSystem": "HT29 colon", "relationOperator": "=", "measured": 10.1}
